conditions: in 1,4-dioxane, 293.15 K
ATTRIBUTE_MEASURED: solubility (mole fraction)
Give the figure only, with no unit attached.

Ask: What value of solubility (mole fraction) has been reported for the following compound? N#CCc1ccc([N+](=O)[O-])cc1
Result: 0.0567

---

settings: in ethylbenzene, 328.15 K
ATTRIBUTE_MEASURED: solubility (mole fraction)

Ask: What value of solubility (mole fraction) has been reported for the following molecule? N#CCc1ccc([N+](=O)[O-])cc1
Result: 0.0343

---

details: in toluene, 288.15 K
ATTRIBUTE_MEASURED: solubility (mole fraction)
Give the figure only, with no unit attached.

Ask: What value of solubility (mole fraction) has been reported for the following compound? N#CCc1ccc([N+](=O)[O-])cc1
Result: 0.0117

The origin of these recorded values is BigSolDB 2.1.
